In this section we review reported inhibition at 1.25 µM values for a set of compounds.
Biological target: mUSP18 (Mus musculus)
Construct: (46-368); His-tag (N); made in house
Experiment: High-throughput screening, ISG15ct-RhoMP, single dose 1.25 µM
Assay type: biochemical, murine
Settings: mUSP18 %inhibition; carboxylic acid (CA) with coupling reagents DIC/HOBT; read-out: %inh CA + DIC/HOBT

COMPOUND	EXPERIMENTAL_SYSTEM	inhibition at 1.25 µM
O=C(O)c1ccc(COc2ccccc2Br)cc1 [CA207]	mUSP18 (Mus musculus)	10.7%
Cc1nn(-c2ccc(C(F)(F)F)cn2)c(C)c1CC(=O)O [CA253]	mUSP18 (Mus musculus)	9.05%
O=C(O)c1c[nH]nc1-c1cccnc1 [CA140]	mUSP18 (Mus musculus)	7.35%
O=C(O)c1noc(-c2cccc(Cl)c2)n1 [CA169]	mUSP18 (Mus musculus)	4.42%
CC(C(=O)O)n1ccc(C2CC2)n1 (stereo not shown) [CA323]	mUSP18 (Mus musculus)	0.72%
O=C(O)Cc1csc(-c2nnc[nH]2)n1 [CA286]	mUSP18 (Mus musculus)	-3.16%
Cn1ncc(C2CC2)c1C(=O)O [CA166]	mUSP18 (Mus musculus)	-0.27%

###

In this section we review reported inhibition at 1.25 µM values for a set of compounds.
Molecular target: mUSP18 (Mus musculus)
Construct: (46-368); His-tag (N); made in house
Assay: High-throughput screening, ISG15ct-RhoMP, single dose 1.25 µM
Type: biochemical, murine
Conditions: mUSP18 %inhibition; carboxylic acid (CA) with coupling reagents DIC/HOBT; read-out: %inh CA + DIC/HOBT

COMPOUND	UNIT_DESCRIPTOR	inhibition at 1.25 µM
CN1C(=O)CCC(C(=O)O)C1c1cccs1 (centres unmarked)	%	-5.82
O=C(O)c1cnn(-c2ccncc2)c1	%	7.42
O=C(O)c1cccc(S(=O)(=O)NCC2CCCO2)c1 (centres unmarked)	%	-1.37
Cn1nc(C2CCC2)cc1C(=O)O	%	-6.37
O=C(O)c1csc(-c2cnc[nH]2)n1	%	-0.05
O=C(O)c1ccc(-n2ncc(Cl)c(Cl)c2=O)cc1	%	9.85
O=C(O)[1C@@H]1CCCO[1C@H]1c1ccccc1	%	9.77
CC(C)C(=O)O	%	-18
O=C(O)c1cccnc1-n1cccn1	%	17
O=C(O)C1(n2cnnn2)CCOCC1	%	5.68
O=Cc1ccc(C(=O)O)cc1	%	-5.24
O=C(O)c1cccc(B(O)O)c1	%	-16.2
O=C(O)Cc1ccc(OCc2ccccn2)cc1	%	-2.79
O=C(O)c1cccnc1Oc1ccccc1Br	%	-4.5
Cn1cc(-c2cc(C(=O)O)no2)cn1	%	-1.79
O=C(O)c1cccc2c1-c1ccccc1C2	%	-7.2
Cn1nc(C(=O)N2CCOCC2)cc1C(=O)O	%	0.97
Cn1cc(S(=O)(=O)NCc2ccco2)cc1C(=O)O	%	6.58
O=C(O)c1ccc(-c2nnco2)cc1	%	-8.55
O=C(O)Cc1cc(-c2ccccc2)on1	%	14.7
O=C(O)c1csc(C2CC2)n1	%	1.88
CN(Cc1ccco1)c1ccccc1C(=O)O	%	7.61
O=C(O)C(Cc1c[nH]cn1)NS(=O)(=O)c1ccc(Cl)cc1 (centres unmarked)	%	8.3

###

Target: mUSP18 (Mus musculus)
Construct: (46-368); His-tag (N); made in house
Assay: High-throughput screening, ISG15ct-RhoMP, single dose 1.25 µM
Type: biochemical, murine
Conditions: mUSP18 %inhibition; carboxylic acid (CA) with coupling reagents DIC/HOBT; read-out: %inh CA + DIC/HOBT
In this section we review reported inhibition at 1.25 µM values for a set of compounds.

COMPOUND	inhibition at 1.25 µM [%]
O=C(O)c1ccc(-c2cccs2)[nH]c1=O	-3.37
O=C(O)Cc1ccc(NS(=O)(=O)c2cccc(C(F)(F)F)c2)cc1	2.94
O=C(O)c1ccccc1Cn1cncn1	-6.89
O=C(O)C1Cc2ccccc21 (stereo not shown)	2.89
O=C(O)c1nccc2ccccc12	-9.45
O=C(O)C1CCN(C(=O)c2ccccn2)CC1	2.43
CCn1nc(C(C)C)cc1C(=O)N1CCCCC1C(=O)O (stereo not shown)	-10.1

###

Biological target: mUSP18 (Mus musculus)
Construct: (46-368); His-tag (N); made in house
Assay: High-throughput screening, ISG15ct-RhoMP, single dose 1.25 µM
Assay type: biochemical, murine
Conditions: mUSP18 %inhibition; carboxylic acid (CA) building block alone; read-out: %inh CA only
In this section we review reported inhibition at 1.25 µM values for a set of molecules.

MOLECULE	inhibition at 1.25 µM [%]
O=C(O)c1ccc(-c2nnco2)cc1	-4.57
O=C(O)C(F)(F)n1cc(-c2ccccc2)nn1	8.22
Cc1oc(Cn2cc(Br)cn2)cc1C(=O)O	8.69
O=C(O)c1cc(OCc2ccccc2)ccn1	3.17
O=C(O)c1cccc(B(O)O)c1	-5.9
O=C(O)C(Cc1ccccc1)N1CCCOC1=O (stereo not drawn)	2.86
O=Cc1ccc(C(=O)O)cc1	9.56
O=C(O)c1ccc(S(=O)(=O)NC2CC2)cc1	7.6
O=C(O)c1ccccc1CCc1ccccc1	2.38
O=C(O)C1CCOC2(CCC2)C1 (stereo not drawn)	7.46
CCn1ccc(-c2cc(C(=O)O)no2)n1	9.91
Cn1nc(CC(=O)O)cc1C1CC1	-0.57
O=C(O)C1CC(=O)N(CCOc2ccccc2Cl)C1 (stereo not drawn)	3.64
COc1ccc(C(=O)O)cc1S(=O)(=O)NCc1ccccn1	3.79
O=C(NCc1ccc(C(=O)O)cc1)OCC1c2ccccc2-c2ccccc21	13.4
CCC1(Cn2cc(C(=O)O)nn2)COC1	10.3
O=C(O)Cc1ccc(OCc2ccccn2)cc1	-5.3
O=C(O)CCc1ccccc1Br	-0.54
O=C(O)C(Br)c1ccccc1 (stereo not drawn)	-2.41
CC1(C(=O)O)CCCCN1C(=O)OCc1ccccc1 (stereo not drawn)	0.85
O=C(O)c1cc(C2CCCCC2)[nH]n1	1.65
O=C(O)c1cccnc1N1CCCCC1	-0.46
Cn1cc(NS(=O)(=O)c2ccsc2C(=O)O)cn1	3.97
CCn1cc(S(=O)(=O)N2CCC(C(=O)O)CC2)cn1	11.4
O=C(O)C(=O)N1CCN(c2ccccc2)CC1	10.4
O=C(O)Cc1ccc(S(=O)(=O)N2CCCC2)s1	21.7
CC1CCN(c2ncc(C(=O)O)s2)CC1	9.83
O=C(O)Cc1csc(NS(=O)(=O)c2ccccc2)n1	-4.79
O=C(O)c1ccc(-c2ccncc2)[nH]c1=O	-8.86
CC(C(=O)O)n1ccc(C2CC2)n1 (stereo not drawn)	-0.32
COc1ccc(C(=O)O)cc1S(=O)(=O)N(C)CCc1cccnc1	0.43
CC1=NN(c2cccc(Br)c2)C(=O)C1CC(=O)O (stereo not drawn)	-10.1
O=C(O)c1cn(CC(=O)N2CCCC2)nn1	2.32

###

Target: mUSP18 (Mus musculus, UniProt Q9WTV6)
Construct: (46-368); His-tag (N); made in house
Sequence (Q9WTV6 46-368): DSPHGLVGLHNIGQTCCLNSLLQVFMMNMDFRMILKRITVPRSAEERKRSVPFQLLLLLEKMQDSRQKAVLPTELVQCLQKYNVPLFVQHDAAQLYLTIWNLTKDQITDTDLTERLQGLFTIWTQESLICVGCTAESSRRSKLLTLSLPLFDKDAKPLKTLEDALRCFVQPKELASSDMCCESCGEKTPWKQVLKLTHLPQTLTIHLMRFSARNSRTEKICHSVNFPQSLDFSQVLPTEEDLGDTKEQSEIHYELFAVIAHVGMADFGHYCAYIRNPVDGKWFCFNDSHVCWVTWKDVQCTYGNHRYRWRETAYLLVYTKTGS
Test: High-throughput screening, ISG15ct-RhoMP, single dose 1.25 µM
Type: biochemical, murine
Details: mUSP18 %inhibition; carboxylic acid (CA) with coupling reagents DIC/HOBT; read-out: %inh CA + DIC/HOBT

COMPOUND	EXPERIMENTAL_SYSTEM	inhibition at 1.25 µM
O=C(O)c1cnn(Cn2cc(Cl)cn2)c1	mUSP18 (Mus musculus, UniProt Q9WTV6)	1.28%
O=C(O)c1cn(CC(=O)N2CCCC2)nn1	mUSP18 (Mus musculus, UniProt Q9WTV6)	14.5%
O=C(O)Cc1cccc(OCc2ccccn2)c1	mUSP18 (Mus musculus, UniProt Q9WTV6)	6.76%
O=C(O)c1ccc(Cl)c(N2CCCS2(=O)=O)c1	mUSP18 (Mus musculus, UniProt Q9WTV6)	14.1%
Cc1cnn(-c2c(C(=O)O)c(C)nn2C)c1	mUSP18 (Mus musculus, UniProt Q9WTV6)	15%
O=C(O)C1CCCN(c2ccc(Cl)nn2)C1 (stereo not shown)	mUSP18 (Mus musculus, UniProt Q9WTV6)	-2.38%
O=C(O)c1cc(S(=O)(=O)Nc2nccs2)ccc1F	mUSP18 (Mus musculus, UniProt Q9WTV6)	-6.97%
O=C(O)c1cc(-c2ccc(Cl)s2)[nH]n1	mUSP18 (Mus musculus, UniProt Q9WTV6)	9.65%
O=C(O)c1sccc1S(=O)(=O)NC1CCCCCC1	mUSP18 (Mus musculus, UniProt Q9WTV6)	5.26%
O=Cc1cn(CC(=O)O)c2ccccc12	mUSP18 (Mus musculus, UniProt Q9WTV6)	-8.7%
Cc1noc(C)c1S(=O)(=O)N1CCC(C(=O)O)CC1	mUSP18 (Mus musculus, UniProt Q9WTV6)	-1.35%
O=C(O)CNC(=O)c1ccccc1	mUSP18 (Mus musculus, UniProt Q9WTV6)	-8.67%
O=C(O)CC1(Cn2cnnn2)CCCCC1	mUSP18 (Mus musculus, UniProt Q9WTV6)	-1.32%
